Data provenance is PubChem BioAssay (EPA / NIEHS).

assay_name: ATG_XTT_Cytotoxicity_XSP1: Cytotoxicity Assessment in the Attagene TRANS-FACTORIAL Multi-Species (XSP1) HepG2 Assay (AID 2283810)
Results filed as inconclusive are left out. Activity calls are given as the source filed them. How the source made its calls: active means hit-call score of the fitted dose curve at least 0.9, where 1 is the maximum; inconclusive means response in the unintended direction; inactive means score below 0.9.
Hello, when you answer, please use one of the following outcomes: True (active), False (inactive)

Examples from the recorded data:
compound	assigned_label
Oc1cc(Cl)ccc1Oc1ccc(Cl)cc1Cl	True
COP(=S)(OC)Oc1ccc(SC)c(C)c1	False
O=S1OCC2C(CO1)C1(Cl)C(Cl)=C(Cl)C2(Cl)C1(Cl)Cl (stereo unspecified)	False
O=S(=O)(O)C(F)(F)C(F)(F)C(F)(F)C(F)(F)C(F)(F)C(F)(F)C(F)(F)C(F)(F)F	True
CCCN(CCC)c1c([N+](=O)[O-])cc(C(F)(F)F)cc1[N+](=O)[O-]	False

Now turn to the next compound.
Query: recorded result category for CCCN(CCOc1c(Cl)cc(Cl)cc1Cl)C(=O)n1ccnc1 in this test
True

====

Read-out: Bcl-2 (BID) gene, BID (gene 637)
assay_name: LTEA_HepaRG_BID: Life Technologies and Expression Analysis (LTEA) Assay for Bcl-2 (BID) gene using HepaRG (AID 2283476)
test_conditions: mRNA level, 48 h; actives raise or lower the signal
The source made the active and inactive calls. How the source made its calls: active means hit-call score of the fitted dose curve at least 0.9, where 1 is the maximum; inactive means score below 0.9.
Hello, when you answer, please use one of the following outcomes: active, inactive

Examples from the recorded data:
compound	assigned_label
CNC(=O)/C=C(\C)OP(=O)(OC)OC	inactive
CC1(c2ccc(Oc3ccccc3)cc2)OC(=O)N(Nc2ccccc2)C1=O (stereo unspecified)	inactive
O=C(O)C(F)(F)C(F)(F)C(F)(F)C(F)(F)C(F)(F)C(F)(F)C(F)(F)F	inactive
O=S1OCC2C(CO1)C1(Cl)C(Cl)=C(Cl)C2(Cl)C1(Cl)Cl (stereo unspecified)	inactive
C#CCN1C(=O)COc2cc(F)c(N3C(=O)C4=C(CCCC4)C3=O)cc21	inactive
CCOC1Oc2ccc(OS(C)(=O)=O)cc2C1(C)C (stereo unspecified)	inactive
N#Cc1c(Cl)c(Cl)c(Cl)c(C#N)c1Cl	inactive
CCCN(CCC)c1c([N+](=O)[O-])cc(C(F)(F)F)cc1[N+](=O)[O-]	inactive

Query: recorded result category for CC(C)(C)C(O)C(Oc1ccc(Cl)cc1)n1cncn1 (stereo unspecified) in this test
inactive

Query: recorded result category for CCC(C)Nc1c([N+](=O)[O-])cc(C(C)(C)C)cc1[N+](=O)[O-] (stereo unspecified) in this test
inactive

Query: recorded result category for CC(C)N(C(=O)COc1nnc(C(F)(F)F)s1)c1ccc(F)cc1 in this test
inactive

Query: recorded result category for O=S(=O)(O)C(F)(F)C(F)(F)C(F)(F)C(F)(F)C(F)(F)C(F)(F)C(F)(F)C(F)(F)F in this test
inactive

Query: recorded result category for C[C@H]1[C@H](c2ccc(Cl)cc2)SC(=O)N1C(=O)NC1CCCCC1 in this test
inactive

Query: recorded result category for O=C1c2ccccc2C(=O)N1SC(Cl)(Cl)Cl in this test
inactive

Query: recorded result category for O=[N+]([O-])c1c(Cl)c(Cl)c(Cl)c(Cl)c1Cl in this test
inactive

Query: recorded result category for O=C(O)COc1ccc(Cl)cc1Cl in this test
inactive

Query: recorded result category for CCC(C)(NC(=O)c1cc(Cl)c(C)c(Cl)c1)C(=O)CCl (stereo unspecified) in this test
active

Query: recorded result category for CNC(=O)Oc1cccc(N=CN(C)C)c1 in this test
inactive

Query: recorded result category for COP(=O)(OC)OC=C(Cl)Cl in this test
inactive

Query: recorded result category for CCOCN(C(=O)CCl)c1c(C)cccc1CC in this test
inactive

Query: recorded result category for CCCN(CCOc1c(Cl)cc(Cl)cc1Cl)C(=O)n1ccnc1 in this test
inactive

Query: recorded result category for CC[C@H](C)[C@H]1O[C@]2(C=C[C@@H]1C)C[C@@H]1C[C@@H](C/C=C(\C)[C@@H](O[C@H]3C[C@H](OC)[C@@H](O[C@H]4C[C@H](OC)[C@@H](O)[C@H](C)O4)[C@H](C)O3)[C@@H](C)/C=C/C=C3\CO[C@@H]4[C@H](O)C(C)=C[C@@H](C(=O)O1)[C@]34O)O2 (tested in a mixture with another compound) in this test
inactive

Query: recorded result category for CN1CSC(=S)N(C)C1 in this test
inactive

Query: recorded result category for CCc1ccc(C(=O)NN(C(=O)c2cc(C)cc(C)c2)C(C)(C)C)cc1 in this test
inactive

Query: recorded result category for O=[N+]([O-])/N=C1\NCCN1Cc1ccc(Cl)nc1 in this test
inactive

Query: recorded result category for ClC1C(Cl)C(Cl)C(Cl)C(Cl)C1Cl (stereo unspecified) in this test
inactive
